system_tested: UniProt P06737
Sequence (P06737 whole entry): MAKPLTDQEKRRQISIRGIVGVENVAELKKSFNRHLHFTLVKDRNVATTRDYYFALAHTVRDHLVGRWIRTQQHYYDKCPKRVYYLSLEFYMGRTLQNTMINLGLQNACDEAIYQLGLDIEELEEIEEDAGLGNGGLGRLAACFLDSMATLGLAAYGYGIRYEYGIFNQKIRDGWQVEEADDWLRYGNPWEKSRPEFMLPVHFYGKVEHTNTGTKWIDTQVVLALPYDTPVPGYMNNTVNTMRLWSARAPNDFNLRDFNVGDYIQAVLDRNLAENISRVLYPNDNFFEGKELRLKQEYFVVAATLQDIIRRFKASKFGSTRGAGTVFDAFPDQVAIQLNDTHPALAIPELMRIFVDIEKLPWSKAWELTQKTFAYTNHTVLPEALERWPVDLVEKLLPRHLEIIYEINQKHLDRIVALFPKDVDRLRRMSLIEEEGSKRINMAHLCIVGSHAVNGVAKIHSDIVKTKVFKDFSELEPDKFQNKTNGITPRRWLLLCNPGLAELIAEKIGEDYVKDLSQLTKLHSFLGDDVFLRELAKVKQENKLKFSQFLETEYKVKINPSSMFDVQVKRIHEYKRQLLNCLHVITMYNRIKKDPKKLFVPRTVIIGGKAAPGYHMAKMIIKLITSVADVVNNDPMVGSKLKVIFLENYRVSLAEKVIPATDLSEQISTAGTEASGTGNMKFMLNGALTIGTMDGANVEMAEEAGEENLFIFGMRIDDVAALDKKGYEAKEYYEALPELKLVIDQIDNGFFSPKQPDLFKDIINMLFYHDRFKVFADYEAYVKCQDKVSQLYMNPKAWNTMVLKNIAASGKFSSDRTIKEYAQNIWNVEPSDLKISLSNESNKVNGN
protocol_text: Glycogen phosphorylase a activity test
Format: biochemical
condition_context: inhibition of GPa in vitro, reverse direction (glycogen synthesis from glucose 1-phosphate, released inorganic phosphate, absorption at 820 nm)
reported_property: IC50 (nM)
Give your result in nM as a bare value.

In [3]: df
Out[3]:
                                   compound  reported_property  value_unit  readout_value
0  O=C(NC(=O)c1ccc(F)cc1Cl)Nc1ccsc1-c1nnn[nH]1 [Example 33]               IC50          nM             80
1  NC(=O)c1sc(-c2ccccc2)cc1NC(=O)NC(=O)c1cc(F)c(F)cc1Cl [Example 17]               IC50          nM             30
2  O=C(NC(=O)c1cc(F)c(F)cc1Cl)Nc1cc(-c2ccccc2)sc1C(=O)O [Example 21]               IC50          nM             10
3  O=C(NC(=O)c1cc(F)c(F)cc1Cl)Nc1cscc1-c1ccccc1 [Example 30]               IC50          nM           1400
4  COc1ccc(-c2cc(NC(=O)NC(=O)c3cc(F)c(F)cc3Cl)c(C(N)=O)s2)cc1 [Example 24]               IC50          nM             40

For this compound ( NC(=O)c1sc(-c2cccs2)cc1NC(=O)NC(=O)c1cc(F)c(F)cc1Cl [Example 23] ), measured IC50 is 50
